Form field: IC50 (one value per entry).
- ASSAYED TARGET: HCV NS5b RNA dependent RNA polymerase (Hepatitis C virus genotype 1a)
- Sequence (P27958 2421-3011): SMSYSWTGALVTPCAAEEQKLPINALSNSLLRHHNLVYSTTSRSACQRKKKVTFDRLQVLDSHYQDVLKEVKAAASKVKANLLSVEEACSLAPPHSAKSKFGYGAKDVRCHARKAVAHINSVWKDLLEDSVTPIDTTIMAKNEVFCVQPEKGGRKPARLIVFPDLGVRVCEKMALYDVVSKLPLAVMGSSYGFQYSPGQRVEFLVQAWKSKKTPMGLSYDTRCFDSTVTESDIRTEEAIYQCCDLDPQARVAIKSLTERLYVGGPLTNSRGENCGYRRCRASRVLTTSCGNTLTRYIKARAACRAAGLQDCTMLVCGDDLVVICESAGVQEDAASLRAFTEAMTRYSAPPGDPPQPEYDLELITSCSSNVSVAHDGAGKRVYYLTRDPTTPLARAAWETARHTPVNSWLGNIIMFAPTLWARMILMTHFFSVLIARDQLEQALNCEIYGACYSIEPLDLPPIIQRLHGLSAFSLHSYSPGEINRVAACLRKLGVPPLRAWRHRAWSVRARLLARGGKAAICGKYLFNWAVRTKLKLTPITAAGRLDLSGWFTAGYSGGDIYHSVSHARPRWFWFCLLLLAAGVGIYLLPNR
Counter-ions that a name gives are not always drawn.
PROPERTY NAME: IC50 (µM)

COMPOUND: NCc1ccc(Nc2ccc(C(F)(F)F)cc2NC(=O)c2cc(Cl)c(Cl)cc2C(=O)O)cc1 [i., monohydrochloride]
PROPERTY NAME: IC50
UNIT LABEL: µM
VALUE: 1.42
//
COMPOUND: N#Cc1ccc(Nc2ccc(C(F)(F)F)cc2NC(=O)c2ccccc2C(=O)O)cc1 [xvii.]
PROPERTY NAME: IC50
UNIT LABEL: µM
VALUE: 1.74
